test system: Aspergillus niger; experiment: Antifungal activity against Aspergillus niger MTCC 1344 assessed as inhibition of growth zone at 40 ug/ml after 2 to 3 days by cup-plate method relative to clotrimazole; type: functional
In this section, each of the compounds is paired with its reported inhibition at 40 µg/mL.
Express it in %; write the number only.

# smiles, numeric.readout
measured = [
    ("COc1ccc(/C=C/c2nc3ccccc3c(=O)n2-c2nnc(-c3ccc(C)cc3)s2)cc1", 53),
    ("Cc1ccc(-c2nnc(-n3c(/C=C/c4ccccc4)nc4ccccc4c3=O)s2)cc1", 47),
    ("Cc1ccc(/C=C/c2nc3ccccc3c(=O)n2-c2nnc(-c3ccccc3)s2)cc1", 42),
    ("O=c1c2ccccc2nc(/C=C/c2ccccc2)n1-c1nnc(-c2ccccc2)s1", 34),
    ("COc1ccc(/C=C/c2nc3ccccc3c(=O)n2-c2nnc(/C=C/c3ccccc3)s2)cc1", 46),
    ("O=c1c2ccccc2nc(/C=C/c2ccccc2)n1-c1nnc(/C=C/c2ccccc2)s1", 42),
    ("O=c1c2ccccc2nc(/C=C/c2ccccc2)n1-c1nnc(-c2cccc(Cl)c2)s1", 55),
    ("Cc1ccc(/C=C/c2nc3ccccc3c(=O)n2-c2nnc(-c3cccc(Cl)c3)s2)cc1", 34),
]

[ask] Look up inhibition at 40 µg/mL for this compound: "COc1ccc(/C=C/c2nc3ccccc3c(=O)n2-c2nnc(-c3cccc(Cl)c3)s2)cc1"
[reply] 33

====

In this section, each of the molecules is paired with its reported MIC.
test system: Pseudomonas aeruginosa; assay: Antibacterial activity against Pseudomonas aeruginosa MTCC 424 after 24 hr by cup-plate method; type: functional; settings: MTCC 424, 24 h
Express it in µg/mL; write the number only.

# smiles, observed.property, reading.unit, numeric.readout
data = [
    ("Cc1ccc(-c2nnc(-n3c(/C=C/c4ccccc4)nc4ccccc4c3=O)s2)cc1", "MIC", "µg/mL", 10),
    ("Cc1ccc(/C=C/c2nc3ccccc3c(=O)n2-c2nnc(-c3ccccc3)s2)cc1", "MIC", "µg/mL", 11),
    ("COc1ccc(/C=C/c2nc3ccccc3c(=O)n2-c2nnc(-c3ccccc3)s2)cc1", "MIC", "µg/mL", 12.7),
    ("Cc1ccc(/C=C/c2nc3ccccc3c(=O)n2-c2nnc(/C=C/c3ccccc3)s2)cc1", "MIC", "µg/mL", 10.1),
    ("Cc1ccc(/C=C/c2nc3ccccc3c(=O)n2-c2nnc(-c3ccc(Cl)cc3)s2)cc1", "MIC", "µg/mL", 11.8),
]

[ask] Look up MIC for this molecule: "O=c1c2ccccc2nc(/C=C/c2ccccc2)n1-c1nnc(-c2cccc(Cl)c2)s1"
[reply] 12.1

[ask] Next molecule: "COc1ccc(/C=C/c2nc3ccccc3c(=O)n2-c2nnc(/C=C/c3ccccc3)s2)cc1"
[reply] 11.4

[ask] Next molecule: "Cc1ccc(/C=C/c2nc3ccccc3c(=O)n2-c2nnc(-c3cccc(Cl)c3)s2)cc1"
[reply] 15.9

[ask] Next molecule: "COc1ccc(/C=C/c2nc3ccccc3c(=O)n2-c2nnc(-c3ccc(Cl)cc3)s2)cc1"
[reply] 9.45

====

tested on: Staphylococcus aureus; test: Antibacterial activity against Staphylococcus aureus MTCC 96 assessed as inhibition of growth zone at 20 ug/ml after 24 hr by cup-plate method relative to norfloxacin; type: functional; conditions: MTCC 96, 24 h
observed.property: inhibition at 20 µg/mL (%)
Express it in %; write the number only.

Answered examples (5):
# smiles, assay.target, inhibition at 20 µg/mL / %
data = [
    ("COc1ccc(/C=C/c2nc3ccccc3c(=O)n2-c2nnc(-c3ccc(C)cc3)s2)cc1", "Staphylococcus aureus", 62),
    ("COc1ccc(/C=C/c2nc3ccccc3c(=O)n2-c2nnc(-c3ccc(Cl)cc3)s2)cc1", "Staphylococcus aureus", 67),
    ("COc1ccc(/C=C/c2nc3ccccc3c(=O)n2-c2nnc(/C=C/c3ccccc3)s2)cc1", "Staphylococcus aureus", 57),
    ("O=c1c2ccccc2nc(/C=C/c2ccccc2)n1-c1nnc(/C=C/c2ccccc2)s1", "Staphylococcus aureus", 54),
    ("COc1ccc(/C=C/c2nc3ccccc3c(=O)n2-c2nnc(-c3cccc(Cl)c3)s2)cc1", "Staphylococcus aureus", 66),
]

[ask] Look up inhibition at 20 µg/mL for this compound: "Cc1ccc(-c2nnc(-n3c(/C=C/c4ccccc4)nc4ccccc4c3=O)s2)cc1"
[reply] 42

[ask] Next compound: "O=c1c2ccccc2nc(/C=C/c2ccccc2)n1-c1nnc(-c2ccc(Cl)cc2)s1"
[reply] 62

[ask] Next compound: "Cc1ccc(/C=C/c2nc3ccccc3c(=O)n2-c2nnc(/C=C/c3ccccc3)s2)cc1"
[reply] 71

[ask] Next compound: "Cc1ccc(/C=C/c2nc3ccccc3c(=O)n2-c2nnc(-c3ccc(C)cc3)s2)cc1"
[reply] 66

[ask] Next compound: "COc1ccc(/C=C/c2nc3ccccc3c(=O)n2-c2nnc(-c3ccccc3)s2)cc1"
[reply] 57
